Structures can show the parent of a compound that is named as a salt.
Here's what we have: IC50 numbers for mTOR (Homo sapiens (Human), UniProt P42345).
Supply the numeric figure in µM, leaving out any unit text.

Here are 2 compounds together with their reported answers.
Cc1ccc(S(=O)(=O)NC2CC3(CC(O)C3)C2)cc1-c1cnc(N)c(-c2cn(C)nc2C)c1 (stereo not shown) [Example 26]; 0.32
Cc1ncc(-c2cc(-c3cc(S(=O)(=O)N[C@H]4CC[C@H](O)CC4)ccc3C)cnc2N)o1 [Example 98, hydrochloride]; 7.9

# input Tell me reported IC50 for Cc1ccc(S(=O)(=O)NCC(C)(C)O)cc1-c1cnc(N)c(-c2nc(C(C)C)no2)c1 [Example 5.1, hydrochloride] , tested with mTOR (Homo sapiens (Human), UniProt P42345).
# output 8.2

* * *

Molecular target: mTOR (Homo sapiens (Human))
Quick list: pIC50 per entry.
pIC50 is defined as minus the log10 of a concentration measured in mol/L.

Cc1ccc(S(=O)(=O)N[C@H]2CC[C@H](O)CC2)cc1-c1cnc(N)c(-c2cnn(CC(F)(F)F)c2)c1 [Example 4.2]; 5.89

Turning now to a further record.
# input Which measured pIC50 belongs to Cc1cccc(NS(=O)(=O)c2ccc(C)c(-c3cnc(N)c(-c4cnn(C)c4)c3)c2)n1 [Example 30] , tested on mTOR (Homo sapiens (Human))?
# output 5.33

* * *

Target: PI 4-kinase beta (Homo sapiens (Human), UniProt Q9UBF8)
Sequence (Q9UBF8 whole entry): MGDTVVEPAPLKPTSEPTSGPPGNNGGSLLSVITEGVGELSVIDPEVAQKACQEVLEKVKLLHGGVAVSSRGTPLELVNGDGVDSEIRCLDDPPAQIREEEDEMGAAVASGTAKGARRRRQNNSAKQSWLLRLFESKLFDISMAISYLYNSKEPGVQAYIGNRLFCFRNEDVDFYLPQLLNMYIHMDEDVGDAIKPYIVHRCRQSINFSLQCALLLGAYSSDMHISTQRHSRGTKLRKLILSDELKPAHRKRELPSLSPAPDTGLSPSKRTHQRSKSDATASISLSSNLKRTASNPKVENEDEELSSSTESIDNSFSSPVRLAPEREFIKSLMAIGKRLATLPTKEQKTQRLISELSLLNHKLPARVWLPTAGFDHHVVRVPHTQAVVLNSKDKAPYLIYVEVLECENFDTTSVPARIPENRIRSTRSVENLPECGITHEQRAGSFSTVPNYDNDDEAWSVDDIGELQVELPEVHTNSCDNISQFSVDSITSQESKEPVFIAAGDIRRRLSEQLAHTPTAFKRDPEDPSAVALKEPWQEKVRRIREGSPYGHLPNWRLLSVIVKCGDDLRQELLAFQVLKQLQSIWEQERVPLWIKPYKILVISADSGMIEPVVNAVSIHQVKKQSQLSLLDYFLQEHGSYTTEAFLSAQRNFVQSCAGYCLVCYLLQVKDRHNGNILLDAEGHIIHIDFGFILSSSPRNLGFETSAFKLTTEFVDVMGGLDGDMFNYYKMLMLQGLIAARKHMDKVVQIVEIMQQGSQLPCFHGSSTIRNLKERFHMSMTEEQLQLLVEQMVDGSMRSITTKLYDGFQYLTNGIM
Structures can show the parent of a compound that is named as a salt.
Recorded endpoint: IC50 (µM)
Only the number, expressed in µM, is required.

Illustrative cases are given below, each with its answer.
Cc1noc(-c2cc(-c3cc(S(=O)(=O)N4CC[C@H](O)C4)ccc3C)cnc2N)n1 [Example 37.32, hydrochloride]; 8.5
Cc1cc(-c2cc(-c3cc(S(=O)(=O)N[C@H]4CC[C@H](O)CC4)ccc3C)cnc2N)ccn1; 1.7
Cc1nnc(-c2cc(-c3cc(S(=O)(=O)NCCC(C)(C)O)ccc3C)cnc2N)o1; 7.8

Proceed to the following item.
# input Reported IC50 for PI 4-kinase beta (Homo sapiens (Human), UniProt Q9UBF8), given Cc1ccc(S(=O)(=O)NCC(C)(C)O)cc1-c1cnc(N)c(-c2ncco2)c1 [Example 94b] ?
# output 1.3

* * *

Target or system PI 4-kinase beta (Homo sapiens (Human)): recorded pIC50 listed per item.
Where a name gives a salt, the structure may show the parent alone.
Worth noting: pIC50 values are minus log10 of concentrations stated in mol/L.

Look over these answered cases.
Cc1ncc(-c2cc(-c3cc(S(=O)(=O)NCCO)ccc3C)cnc2N)s1; 5.55
Cc1ncc(-c2cc(-c3cc(S(=O)(=O)N[C@H]4CC[C@H](CO)CC4)ccc3C)cnc2N)o1; 6.30
Cc1cc(-c2cc(-c3cc(S(=O)(=O)NCC4(CO)CCOCC4)ccc3C)cnc2N)on1; 5.46

# input Which pIC50 is reported with PI 4-kinase beta (Homo sapiens (Human)) for this entry: Cc1noc(-c2cc(-c3cc(S(=O)(=O)NCC(C)(F)F)ccc3C)cnc2N)n1 ?
# output 5.12

# input Missing value: pIC50, PI 4-kinase beta (Homo sapiens (Human)), entry Cc1noc(-c2cc(-c3cc(S(=O)(=O)NO[C@H]4C[C@H](O)C4)ccc3C)cnc2N)n1 . Fill in?
# output 5.33

# input Give the reported pIC50 for Cc1cc(-c2cc(-c3cc(S(=O)(=O)N4CCC[C@H]4CO)ccc3C)cnc2N)on1 [Example 19.15, trifluoroacetic acid salt] (system: PI 4-kinase beta (Homo sapiens (Human))).
# output 6.05

Ref: patent US10112926B2
